System: U2OS
Assay: Multiplex assay against U2OS
Format: toxicity, cell-based
Conditions: human, 24 h, 1 µM, compound concentration 1 uM, replicate 1
Range-based classes on measured Population Mitotic Cells (%): low (below 50%), moderate (50% to below 60%), high (60% or more)

MOLECULE: Cc1ccc2nc(NCCN)c3ncc(C)n3c2c1.O=C(O)C(F)(F)F.O=C(O)C(F)(F)F
DISCRETE_LABEL: high
//
MOLECULE: O=C(Nc1ccc(-n2nc(-c3cccnc3)cc2C(F)(F)F)cn1)c1ccc(-c2ccccc2)c(F)c1
DISCRETE_LABEL: low
//
MOLECULE: COc1ccc(S(=O)(=O)N(CCO)c2ccccc2CN(C)C/C=C/c2ccc(Cl)cc2)cc1.O=P(O)(O)O
DISCRETE_LABEL: low
//
MOLECULE: O=C1N/C(=N/c2ccccc2F)S/C1=C\c1ccc(C(=O)O)cc1
DISCRETE_LABEL: high
//
MOLECULE: Cl.O=c1c2cccn2c2ccccc2n1CCCN1CCC(c2ccc(Cl)cc2)CC1
DISCRETE_LABEL: low
//
MOLECULE: CCCS(=O)(=O)Nc1ccc(F)c(C(=O)c2c[nH]c3ncc(Cl)cc23)c1F
DISCRETE_LABEL: moderate
//
MOLECULE: COc1ccc(-c2ccc3c(N4CCOCC4)nc(N4C[C@@H](C)O[C@@H](C)C4)nc3n2)cc1CO
DISCRETE_LABEL: moderate
//
MOLECULE: NC(=O)c1cccc(-c2cc(Nc3ccc(OC(F)(F)F)cc3)ncn2)c1
DISCRETE_LABEL: high
//
MOLECULE: COC(=N)c1nc2ccc3ncnc(Nc4ccc(OC)cc4F)c3c2s1
DISCRETE_LABEL: high
//
MOLECULE: COc1cc2ncnc(Nc3ccc(F)c(Cl)c3)c2cc1NC(=O)/C=C/CN1CCCCC1 [DACOMITINIB ANHYDROUS]
DISCRETE_LABEL: moderate
//
MOLECULE: CN1CCN(C(=O)C(C)(C)c2ccc(C(=O)Nc3cn4cc(-c5cc(C(C)(C)C)cc(C(C)(C)C)c5)ccc4n3)cc2)CC1
DISCRETE_LABEL: high
//
MOLECULE: Cc1cn(-c2cc(NC(=O)c3ccc(C)c(Nc4nccc(-c5cccnc5)n4)c3)cc(C(F)(F)F)c2)cn1
DISCRETE_LABEL: low
//
MOLECULE: CCc1cccc(CC)c1NC(=O)c1nn(C)c2c1CCc1cnc(Nc3ccc(C(=O)NC4CCN(C)CC4)cc3OC(F)(F)F)nc1-2
DISCRETE_LABEL: moderate
//
MOLECULE: CNc1cc(Oc2cc(C(=O)Nc3cc(N4CCN(C)CC4)cc(C(F)(F)F)c3)ccc2C)ncn1
DISCRETE_LABEL: moderate
